Here, each record is paired with measured IC50 data.
- Test system: COLO320DM cells
- test name: COLO320DM proliferation assay
- Type: cell-based, human
- applied conditions: read-out: COLO320DM Proliferation Abs IC50
measure name: IC50

INSERT INTO results (molecule, measure_name, reported) VALUES
  ('CC(=O)N1CCC[C@]12CC=CCCCC1(CCCC=CCCCOC(=O)N3CC[C@@]4(C3)NC(=O)[C@H](CCCCNC(=O)CC[C@@H](C(=O)N[C@@H](C)C(N)=O)NC(=O)[C@H](Cc3csc5ccccc35)NC(=O)[C@H](Cc3ccsc3)NC4=O)NC(=O)[C@H](Cc3ccccc3)NC(=O)[C@H](C)NC(=O)C(C)(C)NC(=O)[C@H](Cc3cccc(C(=O)O)c3)NC(=O)[C@H](CC(=O)O)NC1=O)NC(=O)[C@H](CCCN1CCOCC1)NC(=O)[C@H](CC(=O)O)NC2=O (relative stereo)', 'IC50', '> 20 µM'),
  ('CC(=O)N1CCC[C@]12CC=CCCCC1(CCCC=CCCCOC(=O)N3CC[C@@]4(C3)NC(=O)[C@H](CCCCn3cc(nn3)COC[C@@H](C(=O)N[C@@H](C)C(N)=O)NC(=O)[C@H](Cc3csc5ccccc35)NC(=O)[C@H](Cc3ccsc3)NC4=O)NC(=O)[C@H](Cc3ccccc3)NC(=O)[C@H](C)NC(=O)C(C)(C)NC(=O)[C@H](Cc3cccc(C(=O)O)c3)NC(=O)[C@H](CC(=O)O)NC1=O)NC(=O)[C@H](CC(C)(C)C)NC(=O)[C@H](CC(=O)O)NC2=O (relative stereo)', 'IC50', '≤ 10 µM');
